Header: Ki / Carbonic anhydrase 9 (Homo sapiens) / multiple publications
Give bare numbers, in nM.

Fill in Ki for each of the 4 molecules listed.
1. NS(=O)(=O)c1ccc(NC(=O)c2cc(-c3cc(Cl)ccc3O)n[nH]2)cc1
2. Cc1ccc(C(=O)Nc2ccc(C(=O)NC(=S)Nc3ccc(S(N)(=O)=O)cc3)cc2)cc1
3. COc1cc(/C=C/C(=O)OCCCCCN(C)CCCOC(=O)COc2ccc3ccc(=O)oc3c2)cc(OC)c1OC
4. CN1C(=O)C(=C2C(=O)Nc3c(F)cccc32)SC1=Nc1ccc(S(N)(=O)=O)cc1

### Response
34.2
30
54.6
4.1
